Biological target: Cytochrome P450 1A2 (Homo sapiens)
Sequence (P05177 whole entry): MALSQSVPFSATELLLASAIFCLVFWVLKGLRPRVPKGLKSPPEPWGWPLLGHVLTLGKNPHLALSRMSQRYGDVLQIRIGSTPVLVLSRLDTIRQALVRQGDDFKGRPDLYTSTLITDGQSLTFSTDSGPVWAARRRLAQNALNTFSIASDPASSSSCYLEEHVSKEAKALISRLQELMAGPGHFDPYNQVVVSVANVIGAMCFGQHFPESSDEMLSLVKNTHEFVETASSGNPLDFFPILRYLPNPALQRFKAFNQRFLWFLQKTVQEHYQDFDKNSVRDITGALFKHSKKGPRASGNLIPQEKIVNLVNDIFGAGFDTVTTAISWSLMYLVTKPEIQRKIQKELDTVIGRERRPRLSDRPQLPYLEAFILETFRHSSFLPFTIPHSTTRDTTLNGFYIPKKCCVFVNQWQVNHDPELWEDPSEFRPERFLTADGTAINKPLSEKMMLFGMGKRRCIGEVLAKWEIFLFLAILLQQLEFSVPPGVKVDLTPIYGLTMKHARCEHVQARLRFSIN
ATTRIBUTE MEASURED: IC50

| TEST SMILES | MEASURED |
| --- | --- |
| CCOC(=O)N1CCC(N2CCC[C@@H](NC(=O)c3ccccc3C)C2)CC1 | > 25 µM |

====

target: Cytochrome P450 2C9 (Homo sapiens)
Sequence (P11712 whole entry): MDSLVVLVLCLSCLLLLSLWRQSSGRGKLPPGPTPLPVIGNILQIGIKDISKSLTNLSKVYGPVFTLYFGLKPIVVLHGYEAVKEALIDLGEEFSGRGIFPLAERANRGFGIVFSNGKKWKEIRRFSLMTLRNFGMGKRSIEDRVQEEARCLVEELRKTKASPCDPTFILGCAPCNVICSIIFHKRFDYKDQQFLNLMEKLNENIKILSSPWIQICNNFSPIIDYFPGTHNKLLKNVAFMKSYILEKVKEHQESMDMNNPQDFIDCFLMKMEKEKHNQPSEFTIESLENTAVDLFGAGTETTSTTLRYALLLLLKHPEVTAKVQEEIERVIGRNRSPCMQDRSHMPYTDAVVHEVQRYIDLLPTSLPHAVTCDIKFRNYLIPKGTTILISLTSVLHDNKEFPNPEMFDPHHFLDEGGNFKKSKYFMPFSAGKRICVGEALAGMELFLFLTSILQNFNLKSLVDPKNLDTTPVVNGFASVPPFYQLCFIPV

| TEST SMILES | IC50 |
| --- | --- |
| CCOC(=O)N1CCC(N2CCC[C@@H](NC(=O)c3ccccc3C)C2)CC1 | > 25 µM |

====

test: Clearance in rat at 1 mg/kg, iv and 10 mg/kg, po; assay type: ADME, organism-based; conditions: in vivo

| TEST SMILES | READING UNIT | clearance |
| --- | --- | --- |
| CCOC(=O)N1CCC(N2CCC[C@@H](NC(=O)c3ccccc3C)C2)CC1 | mL/min/kg | 14.7 |

====

test: Plasma concentration in Sprague-Dawley rat at 10 mg/kg, po after 90 mins; format: ADME, organism-based; parameters: dose 10 mg/kg, route oral

| TEST SMILES | concentration at 1.5 h [nM] |
| --- | --- |
| CCOC(=O)N1CCC(N2CCC[C@@H](NC(=O)c3ccccc3C)C2)CC1 | 1450 |

====

# Lookup of reported pEC50 keyed by entry
target: Muscarinic acetylcholine receptor M3 (Rattus norvegicus, UniProt P08483); assay: Agonist activity at rat recombinant muscarinic M3 receptor by HTS cell based assay; format: functional
Sequence (P08483 whole entry): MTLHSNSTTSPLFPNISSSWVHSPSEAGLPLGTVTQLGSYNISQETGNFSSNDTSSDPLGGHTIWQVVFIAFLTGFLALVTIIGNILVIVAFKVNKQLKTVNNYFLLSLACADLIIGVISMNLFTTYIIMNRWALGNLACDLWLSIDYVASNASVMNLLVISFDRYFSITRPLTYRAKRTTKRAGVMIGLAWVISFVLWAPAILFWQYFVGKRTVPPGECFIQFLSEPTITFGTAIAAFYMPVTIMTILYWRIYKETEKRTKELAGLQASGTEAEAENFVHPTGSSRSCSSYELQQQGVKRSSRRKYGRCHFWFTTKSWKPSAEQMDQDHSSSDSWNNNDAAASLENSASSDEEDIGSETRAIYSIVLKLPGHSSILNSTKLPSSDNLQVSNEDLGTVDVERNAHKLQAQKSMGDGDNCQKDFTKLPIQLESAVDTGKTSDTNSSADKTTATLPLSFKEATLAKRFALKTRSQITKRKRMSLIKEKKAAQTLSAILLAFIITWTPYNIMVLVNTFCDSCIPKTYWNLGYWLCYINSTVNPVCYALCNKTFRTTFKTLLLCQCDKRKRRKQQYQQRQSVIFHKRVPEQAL
pEC50: −log10 of the molar value.

| TEST SMILES | pEC50 |
| --- | --- |
| CCOC(=O)N1CCC(N2CCC[C@@H](NC(=O)c3ccccc3C)C2)CC1 | < 4.52 |
| CCOC(=O)N1CCC(NCCNC(=O)c2ccccc2C)CC1 | < 4.52 |

====

molecular target: UniProtKB P08911; test: Agonist activity at rat muscarinic M5 receptor expressed in CHO cells; type: functional, cell-based
Sequence (P08911 whole entry): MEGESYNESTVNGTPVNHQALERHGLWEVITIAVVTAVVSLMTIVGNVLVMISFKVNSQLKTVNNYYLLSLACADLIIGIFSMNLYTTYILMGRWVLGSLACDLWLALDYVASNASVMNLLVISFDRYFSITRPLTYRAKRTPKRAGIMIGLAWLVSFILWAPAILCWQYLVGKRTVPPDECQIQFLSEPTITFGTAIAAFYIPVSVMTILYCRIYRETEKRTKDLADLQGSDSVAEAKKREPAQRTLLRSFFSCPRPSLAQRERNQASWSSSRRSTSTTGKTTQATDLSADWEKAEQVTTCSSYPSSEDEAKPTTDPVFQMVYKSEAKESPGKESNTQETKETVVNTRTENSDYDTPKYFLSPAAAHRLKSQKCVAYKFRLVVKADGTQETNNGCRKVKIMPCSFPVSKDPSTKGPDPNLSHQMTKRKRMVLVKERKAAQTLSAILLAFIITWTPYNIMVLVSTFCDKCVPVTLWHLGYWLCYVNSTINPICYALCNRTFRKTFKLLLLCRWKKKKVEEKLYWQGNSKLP
pEC50: −log10 of the molar value.
# Lookup of reported pEC50 keyed by entry
ATTRIBUTE MEASURED: pEC50

| TEST SMILES | TARGET OF ASSAY | MEASURED |
| --- | --- | --- |
| CCOC(=O)N1CCC(N2CCC[C@@H](NC(=O)c3ccccc3Cl)C2)CC1 | UniProtKB P08911 | < 5.00 |
| CCOC(=O)N1CCC(N2CCC[C@@H](NC(=O)C3CCCCC3)C2)CC1 | UniProtKB P08911 | < 5.00 |
| CCOC(=O)N1CCC(N2CCC[C@@H](NC(=O)c3ccc(F)cc3C)C2)CC1 | UniProtKB P08911 | < 5.00 |
| CCOC(=O)N1CCC(NCCNC(=O)c2ccccc2C)CC1 | UniProtKB P08911 | < 4.52 |
| CCOC(=O)N1CCC(N2CCC[C@@H](NC(=O)c3ccccc3C)C2)CC1 | UniProtKB P08911 | < 4.52 |
| CCOC(=O)N1CCC(N2CCC[C@@H](NC(=O)c3ccccc3)C2)CC1 | UniProtKB P08911 | < 5.00 |
| CCOC(=O)N1CCC(N2CCC[C@@H](NC(=O)C3CCCC3)C2)CC1 | UniProtKB P08911 | < 5.00 |
| CCOC(=O)N1CCC(N2CCC[C@@H](NC(=O)c3cccc(F)c3)C2)CC1 | UniProtKB P08911 | < 5.00 |
| CCOC(=O)N1CCC(N2CCC[C@@H](NC(=O)c3ccc(F)c(F)c3)C2)CC1 | UniProtKB P08911 | < 5.00 |
| CCOC(=O)N1CCC(N2CCC[C@@H](NC(=O)c3cccs3)C2)CC1 | UniProtKB P08911 | < 5.00 |

====

molecular target: Muscarinic acetylcholine receptor M2 (Rattus norvegicus); assay: Agonist activity at rat muscarinic M2 receptor expressed in CHO cells; format: functional, cell-based
Sequence (P10980 whole entry): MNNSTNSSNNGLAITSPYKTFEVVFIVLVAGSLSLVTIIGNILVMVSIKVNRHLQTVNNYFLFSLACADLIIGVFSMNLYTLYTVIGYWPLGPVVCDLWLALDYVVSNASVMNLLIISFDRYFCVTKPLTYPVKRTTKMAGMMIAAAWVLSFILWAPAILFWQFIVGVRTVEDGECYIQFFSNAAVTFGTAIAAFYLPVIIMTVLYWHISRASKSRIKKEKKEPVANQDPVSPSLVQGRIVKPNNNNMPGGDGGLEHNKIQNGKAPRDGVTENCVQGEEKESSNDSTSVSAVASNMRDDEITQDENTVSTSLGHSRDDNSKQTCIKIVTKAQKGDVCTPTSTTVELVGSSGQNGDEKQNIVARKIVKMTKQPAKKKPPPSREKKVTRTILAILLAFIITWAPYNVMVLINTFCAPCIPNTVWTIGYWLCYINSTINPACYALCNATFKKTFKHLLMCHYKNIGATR
pEC50: −log10 of the molar value.
# Lookup of reported pEC50 keyed by entry

| TEST SMILES | pEC50 |
| --- | --- |
| CCOC(=O)N1CCC(N2CCC[C@@H](NC(=O)c3ccc(F)cc3C)C2)CC1 | < 5.00 |
| CCOC(=O)N1CCC(N2CCC[C@@H](NC(=O)c3cccc(F)c3)C2)CC1 | < 5.00 |
| CCOC(=O)N1CCC(N2CCC[C@@H](NC(=O)c3ccc(F)c(F)c3)C2)CC1 | < 5.00 |
| CCOC(=O)N1CCC(N2CCC[C@@H](NC(=O)c3cccs3)C2)CC1 | < 5.00 |
| CCOC(=O)N1CCC(NCCNC(=O)c2ccccc2C)CC1 | < 4.52 |
| CCOC(=O)N1CCC(N2CCC[C@@H](NC(=O)C3CCCCC3)C2)CC1 | < 5.00 |
| CCOC(=O)N1CCC(N2CCC[C@@H](NC(=O)c3ccccc3Cl)C2)CC1 | < 5.00 |
| CCOC(=O)N1CCC(N2CCC[C@@H](NC(=O)c3cccc(OC)c3)C2)CC1 | < 5.00 |
| CCOC(=O)N1CCC(N2CCC[C@@H](NC(=O)c3ccc(C)cc3)C2)CC1 | < 5.00 |
| CCOC(=O)N1CCC(N2CCC[C@@H](NC(=O)C3CCCC3)C2)CC1 | < 5.00 |
| CCOC(=O)N1CCC(N2CCC[C@@H](NC(=O)c3ccc(OC)cc3)C2)CC1 | < 5.00 |
| CCOC(=O)N1CCC(N2CCC[C@@H](NC(=O)c3ccccc3C)C2)CC1 | < 4.52 |
| CCOC(=O)N1CCC(N2CCC[C@@H](NC(=O)c3ccccc3)C2)CC1 | < 5.00 |

====

target: Muscarinic acetylcholine receptor M5 (Homo sapiens); experiment: Agonist activity at human recombinant muscarinic M5 receptor by HTS cell based assay
Sequence (P08912 whole entry): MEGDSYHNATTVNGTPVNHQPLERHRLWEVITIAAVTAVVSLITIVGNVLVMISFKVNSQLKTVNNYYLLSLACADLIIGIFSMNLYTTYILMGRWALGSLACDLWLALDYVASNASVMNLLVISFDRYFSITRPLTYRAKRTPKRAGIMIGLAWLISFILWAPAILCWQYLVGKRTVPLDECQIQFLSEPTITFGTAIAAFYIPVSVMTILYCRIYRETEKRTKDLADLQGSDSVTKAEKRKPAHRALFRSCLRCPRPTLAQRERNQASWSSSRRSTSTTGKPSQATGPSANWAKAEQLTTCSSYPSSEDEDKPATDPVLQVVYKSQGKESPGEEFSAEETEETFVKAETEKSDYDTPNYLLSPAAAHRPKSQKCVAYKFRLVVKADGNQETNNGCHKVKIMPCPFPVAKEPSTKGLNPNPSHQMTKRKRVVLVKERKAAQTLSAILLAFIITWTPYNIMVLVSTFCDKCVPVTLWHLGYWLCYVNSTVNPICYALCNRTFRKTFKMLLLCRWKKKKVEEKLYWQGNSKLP
pEC50: −log10 of the molar value.

| TEST SMILES | pEC50 |
| --- | --- |
| CCOC(=O)N1CCC(NCCNC(=O)c2ccccc2C)CC1 | < 4.52 |
| CCOC(=O)N1CCC(N2CCC[C@@H](NC(=O)c3ccccc3C)C2)CC1 | < 4.52 |

====

assay: AUC in rat at 10 mg/kg, po; type: ADME, organism-based; set-up: dose 10 mg/kg, route oral; conditions: plasma
ATTRIBUTE MEASURED: AUC (ng·h/mL)

| TEST SMILES | ATTRIBUTE MEASURED | MEASURED |
| --- | --- | --- |
| CCOC(=O)N1CCC(N2CCC[C@@H](NC(=O)c3ccccc3C)C2)CC1 | AUC | 4200 |

====

# Lookup of reported EC50 keyed by entry
biological target: Muscarinic acetylcholine receptor M4 (Rattus norvegicus, UniProt P08485); assay: Agonist activity at rat muscarinic M4 receptor expressed in CHO cells; format: functional, cell-based
Sequence (P08485 whole entry): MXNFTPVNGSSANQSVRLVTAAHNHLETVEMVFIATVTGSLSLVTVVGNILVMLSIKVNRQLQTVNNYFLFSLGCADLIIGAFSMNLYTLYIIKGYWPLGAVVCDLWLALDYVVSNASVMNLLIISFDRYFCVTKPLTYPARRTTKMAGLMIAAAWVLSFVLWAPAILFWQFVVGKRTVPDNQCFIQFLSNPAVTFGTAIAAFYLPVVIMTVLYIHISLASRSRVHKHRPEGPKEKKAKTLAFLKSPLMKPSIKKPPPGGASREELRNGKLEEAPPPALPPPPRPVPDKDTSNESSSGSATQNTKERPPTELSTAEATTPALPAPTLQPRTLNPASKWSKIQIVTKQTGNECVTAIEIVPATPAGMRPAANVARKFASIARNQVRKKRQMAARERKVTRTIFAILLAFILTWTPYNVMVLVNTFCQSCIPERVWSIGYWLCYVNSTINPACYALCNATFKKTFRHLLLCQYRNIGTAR

| TEST SMILES | EC50 |
| --- | --- |
| CCOC(=O)N1CCC(N2CCC[C@@H](NC(=O)C3CCCC3)C2)CC1 | > 10 µM |
| CCOC(=O)N1CCC(N2CCC[C@@H](NC(=O)c3ccc(OC)cc3)C2)CC1 | > 10 µM |
| CCOC(=O)N1CCC(N2CCC[C@@H](NC(=O)C3CCCCC3)C2)CC1 | > 10 µM |
| CCOC(=O)N1CCC(N2CCC[C@@H](NC(=O)c3ccc(C)cc3)C2)CC1 | > 10 µM |
| CCOC(=O)N1CCC(N2CCC[C@@H](NC(=O)c3ccccc3C)C2)CC1 | > 30 µM |
| CCOC(=O)N1CCC(N2CCC[C@@H](NC(=O)c3ccc(F)c(F)c3)C2)CC1 | > 10 µM |
| CCOC(=O)N1CCC(N2CCC[C@@H](NC(=O)c3cccc(OC)c3)C2)CC1 | > 10 µM |
| CCOC(=O)N1CCC(N2CCC[C@@H](NC(=O)c3ccccc3Cl)C2)CC1 | > 10 µM |
| CCOC(=O)N1CCC(N2CCC[C@@H](NC(=O)c3ccccc3)C2)CC1 | > 10 µM |
| CCOC(=O)N1CCC(N2CCC[C@@H](NC(=O)c3ccc(F)cc3C)C2)CC1 | > 10 µM |
| CCOC(=O)N1CCC(NCCNC(=O)c2ccccc2C)CC1 | > 30 µM |
| CCOC(=O)N1CCC(N2CCC[C@@H](NC(=O)c3cccs3)C2)CC1 | > 10 µM |
| CCOC(=O)N1CCC(N2CCC[C@@H](NC(=O)c3cccc(F)c3)C2)CC1 | > 10 µM |
